Biological target: d-enCas12a (Acidaminococcus sp., UniProt U2UMQ6 1-1307, E174R;S542R;K548R;D908A;E993A;D1235A)
Assay: Spec-seq (native PAGE EMSA with sequencing of bound and unbound); 25 mM Tris-HCl pH 7.4, 150 mM KCl, 5 mM MgCl2, 10% glycerol, 1 mM DTT, 40 ng/uL salmon sperm DNA; 400 nM Cas12a, 480 nM crRNA, 50 nM library, 37 C 1 h; native PAGE at room temperature; high values mean tight binding;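 also: relative affinity from the bound to unbound sequence frequency ratio in Spec-seq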
Details: protein: recombinant
ENDPOINT: binding signal (lnKA)
Numbers only, in lnKA.

Illustrative cases are given below, each with its answer.
BINDER	binding signal (lnKA)
GGCT (dsDNA) DNA 1: GCTATCTAGTGCTCAGTACGCACTGGGCTAGGAAACTTCTGGCAGGACCAGGTCATGAGATCGGAAGAGCACACGTCTGAACTCCAGTCA DNA 2: TGACTGGAGTTCAGACGTGTGCTCTTCCGATCTCATGACCTGGTCCTGCCAGAAGTTTCCTAGCCCAGTGCGTACTGAGCACTAGATAGC RNA: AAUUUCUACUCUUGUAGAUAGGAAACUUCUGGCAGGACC	-5.68
AAGA (dsDNA) DNA 1: GCTATCTAGTGCTCAGTACGCACTGAAGAAGGAAACTTCTGGCAGGACCAGGTCATGAGATCGGAAGAGCACACGTCTGAACTCCAGTCA DNA 2: TGACTGGAGTTCAGACGTGTGCTCTTCCGATCTCATGACCTGGTCCTGCCAGAAGTTTCCTTCTTCAGTGCGTACTGAGCACTAGATAGC RNA: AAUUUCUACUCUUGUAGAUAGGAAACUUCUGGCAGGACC	-5.74

Field: next binder
-- ask What value of binding signal has been recorded for this entry: CATT (dsDNA) DNA 1: GCTATCTAGTGCTCAGTACGCACTGCATTAGGAAACTTCTGGCAGGACCAGGTCATGAGATCGGAAGAGCACACGTCTGAACTCCAGTCA DNA 2: TGACTGGAGTTCAGACGTGTGCTCTTCCGATCTCATGACCTGGTCCTGCCAGAAGTTTCCTAATGCAGTGCGTACTGAGCACTAGATAGC RNA: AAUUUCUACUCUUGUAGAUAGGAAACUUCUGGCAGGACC
-- reply -5.39
